- measuredOn: T1, human IGF-1 receptor (human, UniProt P08069 31-1367)
- T1 construct: whole, on cells
- protocolSummary: SPA competition vs 125I-IGF-1, human IGF-1R membranes (Example 3)
Positions of bridges follow the written chain, without caps; N, C: chain ends. Chains are numbered I, II in the order given. No end group written: not given here.
observedProperty: % native IGF-1 activity (0.55 nM) (%)
# unit: % | format: bare number

// worked examples, % native IGF-1 activity (0.55 nM) included
>  <binder>
IGF-1 A (H8 A9 N21):B (H5D10Y16L17 A22) DPI A-COOH (ends and bridges not checked) chain 1: GIVDECCHASCDLRRLEMYCN-OH chain 2: GPEHLCGADLVDALYLVCGDAGFY-NH2

>  <unitOfMeasure>
%

>  <% native IGF-1 activity (0.55 nM)>
2.4

$$$$
>  <binder>
IGF-1 A:B (H5D10Y16L17) DPI (disulfide I:7-II:6 (inferred); not fully specified (bridges); ends not checked; also: C-terminal amide (chain not given here)) chain 1: GIVDECCFRSCDLRRLEMYCA-NH2 chain 2: GPEHLCGADLVDALYLVCGDRGFY-NH2

>  <unitOfMeasure>
%

>  <% native IGF-1 activity (0.55 nM)>
11.8

$$$$
>  <binder>
IGF-1 A:IGF-1 B(1-8)-In (9-17)-IGF-1 B (18-30) (disulfide I:7-II:6 (inferred); not fully specified (bridges); ends not checked; also: C-terminal amide (chain not given here), my derivation) chain 1: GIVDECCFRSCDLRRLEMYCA-NH2 chain 2: GPETLCGSHLVEALYLVCGDRGFYFNKPT-NH2

>  <unitOfMeasure>
%

>  <% native IGF-1 activity (0.55 nM)>
0.4

$$$$
>  <binder>
IGF-1 A:B (E10Y16L17) DPI (disulfide I:7-II:6 (inferred); not fully specified (bridges); cysteine pairing not given here, A chain, then B chain; DPI as in m25) A chain: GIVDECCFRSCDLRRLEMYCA-NH2 B chain: GPETLCGAELVDALYLVCGDRGFY-NH2

>  <unitOfMeasure>
%

>  <% native IGF-1 activity (0.55 nM)>
2.4

$$$$
>  <binder>
IGF-1 A:In (1-17)-IGF-1 B (18-30) (disulfide I:7-II:7 (inferred); not fully specified (bridges); ends not checked; also: C-terminal amide (chain not given here), my derivation) chain 1: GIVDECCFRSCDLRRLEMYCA-NH2 chain 2: FVNQHLCGSHLVEALYLVCGDRGFYFNKPT-NH2

>  <unitOfMeasure>
%

>  <% native IGF-1 activity (0.55 nM)>
0.9

$$$$

We next turn to a different binder, shown below.
q: Form field: reported % native IGF-1 activity (0.55 nM) of IGF-1 A:In B(1-5)-IGF-1 B(YL) (6-30) (disulfide I:6-I:11, I:20-II:19, I:7-II:7; also: disulfides as in insulin, my derivation) A chain: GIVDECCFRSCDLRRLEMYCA-NH2 B chain: FVNQHLCGAELVDALYLVCGDRGFYFNKPT-NH2
a: 2

Data provenance: patent US20130123171A1
